Listing of Ki toward Glycogen synthase kinase-3 beta (Homo sapiens), each taken from a published source.

molecule	test result
CN1CCN(C(=O)[C@H]2C[C@H]2c2cnc3[nH]cc(-c4oncc4-c4cccc(F)c4F)c3c2)CC1 (relative stereo)	1000 to 12500 nM
Cc1cccc(C(CO)NC(=O)c2cc(-c3nc(NC(CO)c4ccccc4)ncc3C)c[nH]2)c1 (centres unmarked)	> 1000 nM
O=C(O)c1cccc(Nc2nc(Nc3cc(C4CC4)[nH]n3)c3ccccc3n2)c1	100 to 1000 nM

# Cc1cc(Nc2nc(NCc3cccnc3)nc3ccccc23)n[nH]1 with Glycogen synthase kinase-3 beta (Homo sapiens): Ki is < 100 nM

Entry Cc1cc(Nc2nc(-c3ccsc3)nc3ccccc23)[nH]n1 under Glycogen synthase kinase-3 beta (Homo sapiens) had Ki of < 100 nM

Entry FC(F)(F)c1ccccc1-c1nc2c(c(Nc3n[nH]c4ccccc34)n1)CCCCC2 ; assay system Glycogen synthase kinase-3 beta (Homo sapiens); Ki recorded at < 100 nM

Observed Ki on Glycogen synthase kinase-3 beta (Homo sapiens), entry COC(=O)c1cc(Nc2nc(N3CCCCC3)nc3ccccc23)[nH]n1 , equals 100 to 1000 nM

Recorded Ki for N#CCC(=O)N1CCCN(c2cc(-n3cnc(Nc4ccccc4)n3)ccn2)CC1 on Glycogen synthase kinase-3 beta (Homo sapiens) was > 1000 nM

###

Across several publications, the following Ki results were reported for Glycogen synthase kinase-3 beta (Homo sapiens, UniProt P49841).

compound	Ki
COc1ccc(-n2nc3c(Nc4nc(-c5ccccc5)nc5ccccc45)n[nH]c3cc2=O)cc1	100 to 1000 nM
Cc1cccc(C(CO)NC(=O)c2cc(-c3nc(NC4CC4)ncc3C)c[nH]2)c1 (centres unmarked)	100 to 1000 nM
Cc1cc(Nc2nc(-c3ccc4c(c3)OCO4)nc3ccccc23)[nH]n1	100 to 1000 nM
Fc1cc(F)c2n[nH]c(Nc3nc(-c4ccccc4)nc4ccccc34)c2c1	< 100 nM
Cc1ccc(NC(=O)c2cc(Nc3nc(-c4ccccc4)nc4ccccc34)[nH]n2)cc1	1000 to 20000 nM
COCc1cc(Nc2cc(C)[nH]n2)nc(Nc2ccc(Cl)cc2)n1	< 100 nM

The compound identified as CCCNC(=O)Nc1ccc(Nc2ncn(-c3ccnc(N4C[C@@H](C)N(C(C)=O)[C@@H](C)C4)c3)n2)cc1 registered its Ki at > 1000 nM

# compound Clc1ccccc1-c1nc(Nc2n[nH]c3ccccc23)c2ccccc2n1 ; its Ki = < 100 nM

###

Glycogen synthase kinase-3 beta (Homo sapiens, UniProt P49841) pKi, compiled from various sources.
pKi: −log10 of the molar value.

molecule	pKi
Nc1cccc(-c2cnc3[nH]cc(-c4oncc4-c4cccc(F)c4F)c3c2)c1	> 6.70
Clc1ccccc1COc1cccc(Nc2nccc(-c3nccs3)n2)c1	> 7.00
COc1ccc(Oc2ccccc2)cc1Nc1nccc(-c2nccs2)n1	< 6.00
CCOc1ccc(-c2cccc(Nc3nccc(-c4nccs4)n3)c2)cc1	> 7.00
Fc1cnc2[nH]nc(Nc3cc(Cl)nc(C4CCCCC4)n3)c2c1	> 7.60

Case Fc1cccc(COc2cccc(Nc3nccc(-c4nccs4)n3)c2)c1 , Glycogen synthase kinase-3 beta (Homo sapiens, UniProt P49841), pKi recorded as > 7.00

Short answer on Glycogen synthase kinase-3 beta (Homo sapiens, UniProt P49841) for Cc1cnc(Nc2ccc(S(N)(=O)=O)cc2)nc1-c1c[nH]c(C(=O)NC(CO)c2ccccc2)c1 (stereo not shown) , pKi: > 7.00

Item NS(=O)(=O)c1ccc(Nc2nccc(-c3nccs3)n2)cc1 was tested on Glycogen synthase kinase-3 beta (Homo sapiens, UniProt P49841); the reported pKi is > 7.00

For the molecule Cc1cc(C)c2c(Nc3nc(-c4ccccc4C(F)(F)F)nc4ccccc34)n[nH]c2n1 , the measured pKi on Glycogen synthase kinase-3 beta (Homo sapiens, UniProt P49841) was 4.70 to 6.00

pKi on Glycogen synthase kinase-3 beta (Homo sapiens, UniProt P49841) for FC(F)(F)c1ccccc1Nc1nc(Nc2n[nH]c3ccccc23)c2ccccc2n1 is 6.00 to 7.00

Recorded pKi for COC(=O)c1ccc2[nH]nc(Nc3nc(-c4ccccc4C(F)(F)F)nc4ccccc34)c2c1 on Glycogen synthase kinase-3 beta (Homo sapiens, UniProt P49841) was > 7.00

Record CSc1n[nH]c(Nc2nc(-c3ccccc3C(F)(F)F)nc3ccccc23)n1 ; system Glycogen synthase kinase-3 beta (Homo sapiens, UniProt P49841); pKi = 4.70 to 6.00

pKi of FC(F)(F)c1ccccc1-c1cc(Nc2nc[nH]n2)c2ccccc2n1 , assay on Glycogen synthase kinase-3 beta (Homo sapiens, UniProt P49841), is 6.00 to 7.00

###

The entries below pair compounds with Ki values for Glycogen synthase kinase-3 beta (Homo sapiens), as found in several publications.

// below: answered compounds
compound	quantity measured	test result
COc1cccc(-n2nc3c(N)n[nH]c3cc2=O)c1	Ki	< 4000 nM
CS(=O)(=O)NC1CC=C(c2cnc3[nH]cc(-c4oncc4-c4cccc(F)c4F)c3c2)CC1 (centres unmarked)	Ki	< 200 nM
Cc1cc(Nc2nc(NCc3ccc(F)cc3)nc3ccccc23)n[nH]1	Ki	100 to 1000 nM
Cc1cc(Nc2nc(Sc3ccc(NS(=O)(=O)C(C)C)cc3)nc3ccccc23)n[nH]1	Ki	100 to 1000 nM

Now turn to the next compound.
Value (Ki, Glycogen synthase kinase-3 beta (Homo sapiens)) for record Fc1cccc(-c2cnoc2-c2c[nH]c3ncc(-c4cncnc4)cc23)c1F = 1000 to 12500 nM

###

Ki for Glycogen synthase kinase-3 beta (Homo sapiens), merged from several publications.

Below, each entry is followed by its recorded Ki result.
compound	tested on	Ki
CC(=O)N1[C@H](C)CN(c2cc(-n3cnc(Nc4ccc(NC(=O)N(C)C)cc4)n3)ccn2)C[C@@H]1C	Glycogen synthase kinase-3 beta (Homo sapiens)	> 1000 nM
Cc1cc(Nc2cc(N3CCOCC3)nc(SCc3cccc(Cl)c3)n2)n[nH]1	Glycogen synthase kinase-3 beta (Homo sapiens)	100 to 1000 nM
Cc1cc(Nc2nc(-c3cccc(C(F)(F)F)c3)nc3ccccc23)[nH]n1	Glycogen synthase kinase-3 beta (Homo sapiens)	< 100 nM
Cc1cnc(Nc2cccc(C(F)(F)F)c2)nc1-c1c[nH]c(C(=O)NC(CO)c2ccccc2)c1 (stereo not shown)	Glycogen synthase kinase-3 beta (Homo sapiens)	< 100 nM
Fc1cc(F)c2[nH]nc(Nc3nc(-c4ccccc4Cl)nc4ccccc34)c2c1	Glycogen synthase kinase-3 beta (Homo sapiens)	< 100 nM
Cc1cc(Nc2n[nH]c3ncc(F)cc23)nc(C2CC2)n1	Glycogen synthase kinase-3 beta (Homo sapiens)	25 to 500 nM
Cc1cccc(Nc2nc(Nc3cc(C4CC4)[nH]n3)c3ccccc3n2)c1	Glycogen synthase kinase-3 beta (Homo sapiens)	100 to 1000 nM
CCOc1ccccc1-c1cccc(Nc2nccc(-c3nccs3)n2)c1	Glycogen synthase kinase-3 beta (Homo sapiens)	100 to 1000 nM

Please fill in: Ki reported for Fc1ccc2[nH]nc(Nc3nc(-c4ccccc4C(F)(F)F)nc4c3CN(Cc3ccccc3)CC4)c2c1 = < 100 nM

GET /value?item= CCCC(=O)N1CCCN(c2cc(-n3cnc(Nc4ccccc4)n3)ccn2)CC1 &field=Ki returns > 1000 nM

Ki reported for this compound N#Cc1ccc(NCCNc2nc(-c3ccc(Cl)cc3Cl)nc3ccccc23)cc1 : < 100 nM

Lab book: Ki of c1ccc2c(c1)CC(Nc1nc(Nc3cc(C4CC4)[nH]n3)c3ccccc3n1)C2 noted as 100 to 1000 nM

Entry under test: c1ccc2c(c1)CCN(c1nc(Nc3cc(C4CC4)n[nH]3)c3ccccc3n1)C2 . Its Ki was < 100 nM

###

Listed below are molecules with pKi for UniProt:P49841, each taken from published literature.
pKi: −log10 of the molar value.

molecule	pKi
CCNc1ncc(C)c(-c2c[nH]c(C(=O)NC(CCO)c3ccccc3)c2)n1 (centres unmarked)	< 6.00
Cc1cc(Nc2nc(-c3ccncc3)nc3ccccc23)n[nH]1	> 7.00
CONc1ncc(C)c(-c2c[nH]c(C(=O)NC(CO)c3ccccc3)c2)n1 (centres unmarked)	> 7.00
COc1ccc(Nc2nccc(-c3nccs3)n2)cc1Oc1cccc(Cl)c1	6.00 to 7.00
Cc1cccc(C(CO)NC(=O)c2cc(-c3nc(Nc4cccc(N(C)C)c4)ncc3C)c[nH]2)c1 (centres unmarked)	> 7.00

The measured pKi that Fc1cccc(-n2cnnc2-c2c[nH]c3ncc(-c4ccc(N5CCC[C@H]5CN5CCCC5)nc4)cc23)c1F showed for UniProt:P49841 is 6.00 to 6.70

The reported pKi value, UniProt:P49841, for CCC(=O)Nc1ccc(Sc2nc(CO)cc(Nc3cc(C)n[nH]3)n2)cc1 reads 5.15 to 6.00

Summary: CC(=O)Nc1ccc(Nc2nc(Nc3cc(C)[nH]n3)c3ccccc3n2)cc1C , UniProt:P49841, pKi = 6.00 to 7.00

Result for COc1cncc(-c2cnc3[nH]cc(-c4oncc4-c4cccc(F)c4F)c3c2)c1 , tested on UniProt:P49841, pKi: 6.00 to 6.70

Fc1ccc(F)c(-c2cnoc2-c2c[nH]c3ncccc23)c1F tested on UniProt:P49841 gave pKi: 4.90 to 6.00

Item: FC(F)(F)c1cccc(-c2nnc3ccc(NC4CC4)nn23)c1 | System: UniProt:P49841 | pKi: > 5.70

Given the molecule Clc1ccccc1Sc1nc(Nc2cc(C3CC3)[nH]n2)c2ccccc2n1 and test system UniProt:P49841, the measured pKi is > 7.00

Result for c1ccc(-n2cnc(Nc3ccc(N4CCOCC4)cc3)n2)cc1 , tested on UniProt:P49841, pKi: < 6.00

The value of pKi recorded for Fc1ccc2[nH]nc(Nc3nc(-c4ccccc4C(F)(F)F)nc4c3CCC4)c2c1 when tested on UniProt:P49841 reads > 7.00

Measured on UniProt:P49841, Cc1cccc(-c2nc(Nc3cc(C)n[nH]3)c3ccccc3n2)c1 has a documented pKi of 6.00 to 7.00
